Tested on: synthesis of LTB4 in human whole blood
methodSummary: Human whole blood LTB4 production inhibition assay
Type: cell-based
details: calcimycin stimulated, read-out: hWB LTB4 IC50
valueKind: IC50 (nM)

[[record]]
givensmiles = "Nc1ncc(-c2ccc(C3(c4noc(-c5cccc(S(N)(=O)=O)c5)n4)CCC3)cn2)cn1"
qualifier = ">"
recordedmeasurement = 5000

[[record]]
givensmiles = "Nc1ncc(-c2ccc(C3(c4noc(-c5cncs5)n4)CCC3)cn2)cn1"
qualifier = "="
recordedmeasurement = 790

[[record]]
givensmiles = "Cn1cc(-c2nc(C3(c4ccc(-c5cnc(N)nc5)nc4)CCC3)no2)cn1"
qualifier = "="
recordedmeasurement = 270

[[record]]
givensmiles = "Cn1ccc(-c2nc(C3(c4ccc(-c5cnc(N)nc5)nc4)CCC3)no2)n1"
qualifier = "="
recordedmeasurement = 640

[[record]]
givensmiles = "CNc1ncc(-c2ccc(C3(c4noc(-c5cnn(CC(C)(C)O)c5)n4)CCC3)cn2)cn1"
qualifier = "="
recordedmeasurement = 280

[[record]]
givensmiles = "Cc1cc(-c2nc(C3(c4ccc(-c5cnc(N)nc5)cn4)CCC3)no2)[nH]n1"
qualifier = "="
recordedmeasurement = 340

[[record]]
givensmiles = "CN(C(=O)Cn1cc(-c2nc(C3(c4ccc(-c5cnc(N)nc5)nc4)CCC3)no2)cn1)C1CC1"
qualifier = "="
recordedmeasurement = 540

[[record]]
givensmiles = "CC(C)(C)NC(=O)Cn1cc(-c2nc(C3(c4ccc(-c5cnc(N)nc5)nc4)CCC3)no2)cn1"
qualifier = "="
recordedmeasurement = 190

[[record]]
givensmiles = "Nc1ncc(-c2ccc(C3(c4noc(-c5cccnc5)n4)CCOCC3)nc2)cn1"
qualifier = "="
recordedmeasurement = 3000

[[record]]
givensmiles = "Nc1ncc(-c2ccc(C3(c4noc(-c5cccnc5)n4)CCC3)cn2)cn1"
qualifier = "="
recordedmeasurement = 460

[[record]]
givensmiles = "CN(C)CCn1cc(-c2nc(C3(c4ccc(-c5cnc(N)nc5)nc4)CCC3)no2)cn1"
qualifier = "="
recordedmeasurement = 250

[[record]]
givensmiles = "CS(=O)(=O)CCNc1ccc(-c2nc(C3(c4ccc(-c5cnc(N)nc5)nc4)CCC3)no2)cn1"
qualifier = "="
recordedmeasurement = 150

[[record]]
givensmiles = "CC(C)(C(=O)O)n1cc(-c2nc(C3(c4ccc(-c5cnc(N)nc5)nc4)CCC3)no2)cn1"
qualifier = ">"
recordedmeasurement = 5000

[[record]]
givensmiles = "CC(C)(O)Cn1cc(-c2nc(C3(c4ccc(-c5ccc(N)nc5)nc4)CCC3)no2)cn1"
qualifier = "="
recordedmeasurement = 190

[[record]]
givensmiles = "COc1cc(-c2nc(C3(c4ccc(-c5cnc(N)nc5)nc4)CCC3)no2)ccn1"
qualifier = "="
recordedmeasurement = 400

[[record]]
givensmiles = "Cn1cccc(-c2nc(C3(c4ccc(-c5cnc(N)nc5)nc4)CCC3)no2)c1=O"
qualifier = "="
recordedmeasurement = 490

